Source listed as patent US11999759B2.

Biological target: Pa-AmpC (Pseudomonas aeruginosa, UniProt P24735)
Sequence (P24735 27-397): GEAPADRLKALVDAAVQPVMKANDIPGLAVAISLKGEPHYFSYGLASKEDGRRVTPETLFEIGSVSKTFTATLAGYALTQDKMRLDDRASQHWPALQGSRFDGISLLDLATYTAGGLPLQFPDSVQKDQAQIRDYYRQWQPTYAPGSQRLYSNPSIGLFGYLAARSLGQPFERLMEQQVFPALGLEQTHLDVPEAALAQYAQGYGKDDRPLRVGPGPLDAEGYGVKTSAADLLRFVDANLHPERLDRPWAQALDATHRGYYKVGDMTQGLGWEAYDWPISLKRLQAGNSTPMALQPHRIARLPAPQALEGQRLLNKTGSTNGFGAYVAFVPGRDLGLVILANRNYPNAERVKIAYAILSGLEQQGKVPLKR
Experiment: biochemical
MEASUREMENT_NAME: Ki

Fill in: Ki of O=C(O)[C@H]1/C(=C/CO)O[C@@H]2CC(=O)N21 [Clavulanic Acid, reference compound] is ___ > 1 µM

====

Target: NDM-1 (Klebsiella pneumoniae, UniProt C7C422)
Sequence (C7C422 29-270, looked up, species assumed): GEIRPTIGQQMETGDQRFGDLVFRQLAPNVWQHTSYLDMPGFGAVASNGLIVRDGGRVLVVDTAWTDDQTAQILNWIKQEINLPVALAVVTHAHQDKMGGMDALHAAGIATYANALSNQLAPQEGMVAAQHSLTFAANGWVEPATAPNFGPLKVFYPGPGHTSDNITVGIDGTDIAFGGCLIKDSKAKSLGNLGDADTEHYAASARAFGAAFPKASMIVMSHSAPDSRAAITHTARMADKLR
Test: Inhibition of imipenem cleavage by purified NDM-1
Details: imipenem reporter substrate; 37° C.; read-out: Ki (NDM-1, IMI)
Catalogue of Ki values

O=C(O)[C@H]1/C(=C/CO)O[C@@H]2CC(=O)N21 [Clavulanic Acid, reference compound] : > 1 µM
O=C(O)c1cccc2c1OB(O)C1CC21 (centres unmarked) : < 0.1 µM
COc1ccc2c(c1C(=O)O)OB(O)C1C2[C@H]2CC[C@@H]1C2 (some centres unmarked) : < 0.1 µM
O=C(O)c1nccc2c1OB(O)[C@@H]1C[C@H]21 : 0.1 to 1 µM
O=C(O)c1cccc2c1OB(O)CC21CC1 : < 0.1 µM
O=C(O)c1nccc2c1OB(O)[C@H]1C[C@@H]21 : > 1 µM
COc1ccc2c(c1C(=O)O)OB(O)C=C2 : > 1 µM

// next item, Ki requested
Fill in: Ki of COc1ccc2c(c1C(=O)O)OB(O)[C@@H]1C[C@H]21 is ___ < 0.1 µM
